Recorded pIC50 for the following compounds
Test system: NCI-H23
ASSAY: Antiproliferative activity against human NCI-H23 cells harboring KRAS G12C mutant assessed as reduction in cell viability incubated for 72 hrs by MTT assay
Type: functional, cell-based
EXPERIMENTAL_PARAMETERS: NCI-H23, 72 h
pIC50: −log10 of the molar value.
RECORDED_ENDPOINT: pIC50

> print(dat)
                                query.smiles  target.desc  qual  value.measured
 1  C=CC(=O)N1CCC(NC(=O)Nc2ccc(Cl)c(C(F)(F)F)c2)CC1      NCI-H23     <            4.00
 2  C=CC(=O)N1CCC(NC(=O)Nc2ccc(Cl)c(Cl)c2)CC1      NCI-H23     <            4.00
 3  O=C(CCl)N1CCN(C(=O)Nc2ccc(Cl)c(-c3ccccc3F)c2)CC1      NCI-H23     =            5.89
 4  C=CC(=O)N1CC[C@@H](NC(=O)Nc2ccc(Cl)cc2)C1      NCI-H23     <            4.00
 5  C=CC(=O)NC1CCN(C(=O)c2cc(=O)c3cc(Cl)ccc3[nH]2)CC1      NCI-H23     =            4.46
 6  C=CC(=O)N1CC[C@H](NC(=O)Nc2ccc(Cl)c(Cl)c2)C1      NCI-H23     =            4.39
 7  O=C(Nc1ccc(Cl)c(-c2ccccc2F)c1)NC1CCN(C(=O)CCl)CC1      NCI-H23     =            4.37
 8  C=CC(=O)N1CC[C@@H](NC(=O)Nc2ccc(Cl)c(Cl)c2)C1      NCI-H23     =            4.38
 9  COc1cccc(F)c1-c1cc(NC(=O)NC2CCN(C(=O)CCl)CC2)ccc1Cl      NCI-H23     =            4.51
10  C=CC(=O)N1CC[C@@H](NC(=O)c2cc(=O)c3cc(Cl)c(I)cc3[nH]2)C1      NCI-H23     =            4.94
11  C=CS(=O)(=O)NC1CCN(C(=O)CNc2cc(I)c(Cl)cc2OC)CC1      NCI-H23     =            5.52
12  C=CS(=O)(=O)NC1CCN(C(=O)c2cc(=O)c3cc(Cl)c(I)cc3[nH]2)CC1      NCI-H23     =            5.19
13  C=CC(=O)NC1CCN(C(=O)c2cc(=O)c3cc(Cl)c(C(F)(F)F)cc3[nH]2)CC1      NCI-H23     =            5.09
14  O=C(Nc1ccc(Cl)c(C(F)(F)F)c1)N[C@@H]1CCN(C(=O)CCl)C1      NCI-H23     =            5.34
15  C=CC(=O)NC1CCN(C(=O)c2cc(=O)c3ccccc3[nH]2)CC1      NCI-H23     <            4.00
16  O=C(Nc1ccc(Cl)c(C(F)(F)F)c1)N[C@H]1CCN(C(=O)CCl)C1      NCI-H23     =            5.82
17     O=C(Nc1ccc(Cl)cc1)NC1CCN(C(=O)CCl)CC1      NCI-H23     =            5.29
18  O=C(CCl)N1CCN(C(=O)Nc2ccc(Cl)c(C(F)(F)F)c2)CC1      NCI-H23     =            5.04
19  C=CC(=O)N1CC[C@H](NC(=O)Nc2ccc(Cl)c(C(F)(F)F)c2)C1      NCI-H23     =            4.54
20  C=CC(=O)N1CC[C@H](NC(=O)c2cc(=O)c3cc(Cl)c(I)cc3[nH]2)C1      NCI-H23     =            4.99
21  C=CS(=O)(=O)N1CCC(NC(=O)Nc2ccc(Cl)c(C(F)(F)F)c2)CC1      NCI-H23     =            5.59

Reference for the values: ChEMBL document CHEMBL5247585
